The measurements presented in this section are drawn from patent US20170129940A1.

biological target: T1, hCMV gB (expressed in HEK293T cells) (human cytomegalovirus, UniProt P06473 32-906); test: competitor: 6B4-biotin; cell staining
T1 construct: whole, on cells; also called envelope glycoprotein B; UL55
T1 sequence (P06473 32-906 limits assumed): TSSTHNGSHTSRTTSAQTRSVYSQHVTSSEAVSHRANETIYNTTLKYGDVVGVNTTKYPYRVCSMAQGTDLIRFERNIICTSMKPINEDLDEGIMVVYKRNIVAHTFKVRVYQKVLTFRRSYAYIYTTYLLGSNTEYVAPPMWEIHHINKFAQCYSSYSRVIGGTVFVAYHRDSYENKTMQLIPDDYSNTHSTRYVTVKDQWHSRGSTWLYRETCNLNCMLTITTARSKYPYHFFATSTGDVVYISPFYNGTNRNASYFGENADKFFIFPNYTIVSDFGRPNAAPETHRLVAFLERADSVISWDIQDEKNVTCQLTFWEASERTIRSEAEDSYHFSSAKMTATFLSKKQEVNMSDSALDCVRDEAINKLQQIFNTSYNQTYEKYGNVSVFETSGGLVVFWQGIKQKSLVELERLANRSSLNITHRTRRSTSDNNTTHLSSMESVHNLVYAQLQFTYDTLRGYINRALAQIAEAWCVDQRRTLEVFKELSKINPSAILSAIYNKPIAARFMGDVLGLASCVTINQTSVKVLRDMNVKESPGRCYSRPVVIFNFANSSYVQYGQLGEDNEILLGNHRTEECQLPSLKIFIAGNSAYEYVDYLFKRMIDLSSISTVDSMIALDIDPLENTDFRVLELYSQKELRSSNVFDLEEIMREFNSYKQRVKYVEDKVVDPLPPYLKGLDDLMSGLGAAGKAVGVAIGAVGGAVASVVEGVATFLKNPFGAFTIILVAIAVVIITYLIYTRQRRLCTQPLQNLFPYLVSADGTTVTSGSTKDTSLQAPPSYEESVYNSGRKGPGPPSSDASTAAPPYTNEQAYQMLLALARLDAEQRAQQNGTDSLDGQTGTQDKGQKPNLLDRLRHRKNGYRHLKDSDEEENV
property_measured: Inhibition of binding (%)

INSERT INTO measurements (binder, test_value) VALUES
  ('4H9 (antibody, V domains shown, human IgG; also called 4H9-biotin) VH: AVQLVESGGGLVRPGGSLRLSCAASGFTFSSHEMHWVRQAPGKGLEWLSYIDFTGSIIYYADSVRGRFTISRDNTKKSLFLQMNSLRDEDTALYYCARDGGRWGTSWYYFDYWGQGVLVTVSS VL: QSVLTQPPSVSGAPGQRVTITCTGSSSNFGAGYDGHWYQQLPGTAPKLLIYGSNRPSGVPDRFSGSKSGTSVSLAITGLQADDEADYYCQSYDSSLSAWVFGGGTKLTVL', '0%'),
  ('6B4 (antibody, V domains shown, human IgG; also called 6B4-biotin) VH: QVQLVESGGGVVQPGRSLRLSCAASGFRFNEFNMHWVRQAPGKGLEWVAVISIDGRHKYNADSVEGRFTISRDNSRNTLYLQMNSLRVEDTALYYCVTDGKAVDGFSGILEFWGQGTPVTVST VL: EIVLTQSPATLSLSPGERATLSCWASQSVGGYLAWYQQKPGQAPRLLIYDASIRATGIPARFSGSGSGTHFTLTINSLEPEDFAVYYCQQRNNWPPLTFGGGTKVEIK', '100%'),
  ('7H3 (antibody, V domains shown, human IgG; also called 7H3-biotin) VH: QVQLVQSGAEVKNPGASVKVSCKASGYTFTDYYIHWVRQAPGQGLEWMGWFNPNSGGTNFVQNFQGRVTMTRDTSISTAYMELSRLRSDDTAMYYCAKDSAKTASAYYGLNFFYYGMDVWGQGTTVTVSS VL: QSVLSQPPSASGTPGQRVTISCSGSSSNIGKNYVYWYQQVPGTAPKLLMFKNNQRPSGVPDRFSGSKSGTSASLAISGLRSEDEADYYCSAWDGSLSRPLFGGGTKVTVL', '0%');
